pIC50: −log10 of the molar value.
In what follows, each item is paired with its pIC50 for UniProtKB P0DPI0.
Sequence (P0DPI0 2-448 limits assumed): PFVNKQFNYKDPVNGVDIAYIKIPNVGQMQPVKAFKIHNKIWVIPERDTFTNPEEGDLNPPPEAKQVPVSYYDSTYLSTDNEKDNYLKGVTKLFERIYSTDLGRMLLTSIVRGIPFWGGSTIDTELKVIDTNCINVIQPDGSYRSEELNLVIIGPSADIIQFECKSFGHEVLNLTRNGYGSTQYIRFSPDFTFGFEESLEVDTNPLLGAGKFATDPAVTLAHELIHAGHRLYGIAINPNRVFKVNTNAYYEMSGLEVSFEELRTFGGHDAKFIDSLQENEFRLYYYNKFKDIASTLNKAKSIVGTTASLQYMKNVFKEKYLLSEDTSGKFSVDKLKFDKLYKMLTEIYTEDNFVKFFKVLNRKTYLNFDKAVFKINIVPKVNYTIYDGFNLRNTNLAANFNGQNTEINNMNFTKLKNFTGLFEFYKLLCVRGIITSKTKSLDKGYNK

molecule: COc1ccc(CCNC(=O)CC(CC(=O)NO)c2ccc(Cl)cc2Cl)cc1 (centres undefined)
pIC50: 5.17
--
molecule: Cc1ccccc1NC(=O)CC(CC(=O)NO)c1ccc(Cl)cc1Cl (centres undefined)
pIC50: 5.70
--
molecule: O=C(CC(CC(=O)NCCc1ccc(F)cc1)c1ccc(Cl)cc1Cl)NO (centres undefined)
pIC50: 5.59
--
molecule: O=C(CC(CCOCC12CC3CC(CC(Br)(C3)C1)C2)c1ccc(Cl)cc1Cl)NO (centres undefined)
pIC50: 4.89
